# MEASUREMENT_PROTOCOL: qHTS assay to identify small molecule antagonists of the estrogen related receptor signaling pathway with the pleiotropic PPARgamma coactivator (PGC) from Tox21 10K library - cell viability counter screen (AID 1224840); also: nearly all actives have a fitted effect of over 40% in size; also: potency is read from the fitted curve at half-maximal effect
# CONDITION_CONTEXT: PGC/ERR reporter cells viability, CellTiter-Fluor, 17.5 h; series mostly up to 92.4 µM
Results filed as inconclusive are left out. Active and inactive are the calls of the source. Calls follow the shape of the dose curve; as a rule, active = well fitted cell-killing curve with a large enough effect in the repeat runs (not every such curve was filed as active); inconclusive = weak or mixed curves, or effect the other way; inactive = no such curve, though single readings can be large or run the other way.
MEASURE_NAME: Potency

Past entries and their recorded results:
{"MOLECULE": "C[Si](C)O[Si](C)C", "Potency": "inactive"}
{"MOLECULE": "CCc1ccc(O)c(C(C)(C)C)c1", "Potency": "inactive"}
{"MOLECULE": "CCc1c(Br)c(Br)c(Br)c(Br)c1Br", "Potency": "inactive"}
{"MOLECULE": "Cc1cc2c(C(C)C)c(O)c(O)c(C=O)c2c(O)c1-c1c(C)cc2c(C(C)C)c(O)c(O)c(C=O)c2c1O", "Potency": "26.6 µM (active)"}

Hey, quick one: what's Potency for each of these?
1. CC(=O)c1ccccc1N
2. CN1[C@@H]2CC[C@@H]1CC(OC(=O)C(CO)c1ccccc1)C2 (some centres undefined)
3. NC(=O)C(=O)N/N=C/c1ccc([N+](=O)[O-])o1
4. CCC1CCCCC1
5. CCCC(=O)OCC(COC(=O)CCC)OC(=O)CCC
6. Cc1cccc(C)n1
7. O=C1C=CC(=O)N1c1ccccc1
8. CCC(C)c1ccccc1 (centres undefined)

1: inactive; 2: inactive; 3: inactive; 4: inactive; 5: inactive; 6: inactive; 7: 30.6 µM (active); 8: inactive

Hey, quick one: what's Potency for each of these?
1. CC(C)N=C(N)/N=C(\N)Nc1ccc(Cl)cc1
2. CNC(=S)NN

1: inactive; 2: 13.7 µM (active)
